Test system: Pseudomonas aeruginosa strain ATCC 27853
Method notes: Antibacterial activity evaluation test (MIC), broth microdilution, strain ATCC 27853
Type: cell-based
Details: Pseudomonas aeruginosa, ATCC27853, read-out: MIC Pseudomonas aeruginosa strain ATCC 27853
Measure: MIC (µg/mL)

Compound	Bound sign	Readout number
CC(C)(O/N=C(\C(=O)N[C@@H]1C(=O)N2C[C@](SCCNC(=O)/C(=N/N3CCOCC3)c3ccc(O)c(O)c3Cl)(C(=O)O)S[C@H]12)c1csc(N)n1)C(=O)O	=	1
CN(CCS[C@]1(C(=O)O)CN2C(=O)[C@@H](NC(=O)/C(=N\OC(C)(C)C(=O)O)c3csc(N)n3)[C@H]2S1)C(=O)c1ccc(O)c(O)c1Cl	=	1
CO[C@@H](CNC(=O)C(=O)c1ccc(O)c(O)c1Cl)CS[C@]1(C(=O)O)CN2C(=O)[C@@H](NC(=O)/C(=N\OC(C)(C)C(=O)O)c3csc(N)n3)C2S1 (some centres unmarked)	=	0.25
CC(C)(O/N=C(\C(=O)N[C@@H]1C(=O)N2C[C@](SCCNC(=O)c3ccc(O)c(O)c3Cl)(C(=O)O)SC12)c1csc(N)n1)C(=O)O (some centres unmarked)	=	0.125
CC(C)(O/N=C(\C(=O)N[C@@H]1C(=O)N2C[C@](SC3CN(C(=O)/C(=N\O)c4ccc(O)c(O)c4Cl)C3)(C(=O)O)SC12)c1csc(N)n1)C(=O)O (some centres unmarked)	≤	0.0625

// provenance: patent US11208421B2
